experimentalTarget: CYP3A (Homo sapiens, UniProt P08684)
Sequence (P08684 2-503): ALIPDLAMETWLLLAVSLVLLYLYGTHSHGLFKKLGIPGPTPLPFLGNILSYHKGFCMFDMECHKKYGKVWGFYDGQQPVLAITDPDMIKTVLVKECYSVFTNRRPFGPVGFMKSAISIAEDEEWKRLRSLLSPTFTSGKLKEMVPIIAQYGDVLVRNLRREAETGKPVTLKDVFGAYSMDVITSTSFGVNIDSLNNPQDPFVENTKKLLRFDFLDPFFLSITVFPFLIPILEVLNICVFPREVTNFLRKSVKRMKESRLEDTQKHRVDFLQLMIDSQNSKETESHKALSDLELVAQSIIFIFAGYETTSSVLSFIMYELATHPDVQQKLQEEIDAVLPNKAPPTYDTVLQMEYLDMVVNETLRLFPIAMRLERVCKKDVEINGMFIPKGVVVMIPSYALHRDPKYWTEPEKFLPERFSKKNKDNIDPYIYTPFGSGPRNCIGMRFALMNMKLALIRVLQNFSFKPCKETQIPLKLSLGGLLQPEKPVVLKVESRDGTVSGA
protocolDetails: clinical
assayContext: in vivo, po, 2 mg
attributeMeasured: AUC(0-t) (ng·h/mL)
Report as a plain number; the unit ng·h/mL is understood.

q: Reported AUC(0-t), compound Cc1ncc2n1-c1ccc(Cl)cc1C(c1ccccc1F)=NC2 : ____
a: 20.5

====

experimentalTarget: CYP3A (Homo sapiens, UniProt P08684)
protocolDetails: clinical
assayContext: in vivo, po, 2 mg
attributeMeasured: Cmax (ng/mL)
Report as a plain number; the unit ng/mL is understood.

q: Reported Cmax, compound Cc1ncc2n1-c1ccc(Cl)cc1C(c1ccccc1F)=NC2 [Midazolam, midazolam] : ____
a: 8.03
